System: DLD-1 colon
Experiment: NCI tumour cell line growth inhibition, 48 h
MEASURED ENDPOINT: TGI

Completed entries (count: 6):
>>> result_value("COc1cc2c(c(OC)c1OC)-c1[nH]ncc1CC2")
"> 100 µM"
>>> result_value("O=C1C=C(Nc2ccccc2C(=O)CC(=O)C(=O)Nc2cccc(C(F)(F)F)c2)c2ccccc2C1=O")
"> 37.6 µM"
>>> result_value("Cc1c(C(=O)/C=C/c2ccc(Cl)cc2)[n+](=O)c2ccccc2n1[O-]")
"20.4 µM"
>>> result_value("Cc1c(-c2cc3n(n2)C(c2cccs2)C(C#N)=C(c2ccccc2)N3)c(=O)n(-c2ccccc2)n1C (stereo unspecified)")
"> 100 µM"
>>> result_value("Cc1cc(NS(=O)(=O)c2ccc(NC(=O)c3cccc4c(N)c5ccccc5nc34)cc2)no1")
"> 100 µM"
>>> result_value("CC(=O)c1ccc(Oc2ccc(/C(C)=N\\N=C(N)N)cc2)cc1")
"14.3 µM"

// query Name the recorded TGI for CC(c1ccc(Br)cc1)C(C(=O)O)C(=O)O (stereo unspecified) .
// result > 100 µM

// query Recorded TGI of C(=C\c1csnn1)/c1cccnc1 , please.
// result > 100 µM

// query Which TGI is reported for this molecule? Cn1c(CCC#N)nc2ccc(Br)cc2c1=O
// result > 100 µM

// query Consider the molecule shown here: COC(OC)c1cccc2c1C1(O)CCC3(CC21)OCCCCO3 (stereo unspecified) What is its recorded TGI?
// result > 100 µM

// query Using the record for Cc1ccc(NC(=O)/C(CC(=O)c2c[n+](=O)c3ccccc3n2O)=N\NC(=O)C[n+]2ccccc2)cc1 , report its TGI.
// result > 100 µM

###

Test system: EKVX NSCLC
Assay: NCI tumour cell line growth inhibition, 48 h
MEASURED ENDPOINT: GI50

>>> result_value("CCCN(CCC)c1ccc(CO)c(C)c1")
"28400 nM"
>>> result_value("Cn1c(COC(=O)N2CCCCC2)nc2c(N3CCOCC3)nc(-c3ccccc3)nc21")
"1220 nM"
>>> result_value("COc1ccc2c(c1)c(C1(c3cn(C)c4ccc(OC)cc34)C(=O)Nc3ccc(F)cc31)cn2C")
"3050 nM"
>>> result_value("O=C1OCC(C#Cc2ccccc2)=C1Cl")
"1910 nM"

// query State its GI50 on EKVX NSCLC: ClCCN(CCCl)c1ccc(-n2cnc3c(Cl)ncnc32)cc1
// result 1650 nM

// query I'm curious: which GI50 was measured for COC(=O)CCC(=O)c1c(C)[nH]c(/C=C2\N=C(c3ccc[nH]3)C=C2OC)c1C tested on EKVX NSCLC?
// result 1100 nM

// query Which measured GI50 belongs to COCCOC(=O)C1=C(C)NC2=C(C(=O)CC(c3ccccc3OC)C2)C1c1cccc(O)c1 (stereo not given) , tested on EKVX NSCLC?
// result 14400 nM

###

This section presents molecules with their documented TGI values.
Test system: K-562 leukemia
Test: NCI tumour cell line growth inhibition, 48 h

>>> result_value("C(=C\\c1csnn1)/c1cccnc1")
"> 100 µM"
>>> result_value("CC(C)C(C/C=C1/CC(CO)(COC(=O)CC(C(C)C)C(C)C)OC1=O)C(C)C (configuration not stated)")
"> 36.3 µM"
>>> result_value("Cc1cc(N(CCC#N)CCC#N)ccc1/C(N=Nc1cccc([N+](=O)[O-])c1)=N/NC(=O)c1cc(Cl)ccc1O")
"> 100 µM"
>>> result_value("CCCCCCCCCCCCCCCc1cc(O)ccc1N")
"> 38 µM"
>>> result_value("O=S1(=O)CCN(Cc2ccccn2)CC1")
"> 100 µM"
>>> result_value("O=C1c2ccccc2-c2nnc(-c3ccccc3)cc21")
"> 10 µM"

Next molecule, please.
// query Checklist item: TGI tested on K-562 leukemia, entry CC1=CC(C)(C)N=C2SC(c3ccc(Cl)cc3)=NN12 , value?
// result > 100 µM
